read-out: Broad substrate specificity ATP-binding cassette transporter ABCG2 (Homo sapiens); test: LTEA_HepaRG_ABCG2: Life Technologies and Expression Analysis (LTEA) Assay for ABC Transporter (ABCG2) using HepaRG (AID 2283465); settings: mRNA level, 48 h; actives raise or lower the signal
Calls of active or inactive are those of the source. Rule for the calls: active = hit-call score of the fitted dose curve at least 0.9, where 1 is the maximum; inactive = score below 0.9.
PROPERTY_MEASURED: AC50

CCCCC(C#N)(Cn1cncn1)c1ccc(Cl)cc1 (stereo unspecified) :: 4.77 µM (active)
N#Cc1c(Cl)cccc1Cl :: inactive
CC1(C)C(C=C(Cl)Cl)C1C(=O)OC(C#N)c1cccc(Oc2ccccc2)c1 (stereo unspecified) :: 10.8 µM (active)
Cc1cnc(C2=NC(C)(C(C)C)C(=O)N2)c(C(=O)O)c1 (stereo unspecified) :: inactive
COCc1cnc(C2=NC(C)(C(C)C)C(=O)N2)c(C(=O)O)c1 (stereo unspecified) :: inactive
CC1(C)CCC(=Cc2ccc(Cl)cc2)C1(O)Cn1cncn1 (stereo unspecified) :: inactive

###

Read-out: Interleukin-1 alpha (IL1a), IL1A (gene 3552)
Experiment: BSK_BE3C_IL1a: BioMAP Diversity Plus: BE3C Assay for Interleukin-1 alpha (IL1a) Biomarker Activity (AID 2283016)
Conditions: primary human bronchial epithelial cells; actives raise or lower the signal
Experimental: BSK_BE3C is a cell-based, multiplexed-readout assay that uses bronchial epithelial cell, a human lung primary cell, with measurements taken at 24 hours after chemical dosing in a 96-well plate.BSK_BE3C_IL1a is an assay component measured in the BSK_BE3C assay. It measures IL-1a antibody related to regulation of gene expression using ELISA technology.Data from the assay component BSK_BE3C_IL1a was analyzed into 1 assay endpoint. […]
The source made the active and inactive calls. Rule for the calls: active = hit-call score of the fitted dose curve at least 0.9, where 1 is the maximum; inactive = score below 0.9.
PROPERTY_MEASURED: outcome

COP(=O)(OC)O/C(C)=C/C(=O)N(C)C :: inactive
CC(C)NC(=O)N1CC(=O)N(c2cc(Cl)cc(Cl)c2)C1=O :: inactive
Clc1cccc(C(Cl)(Cl)Cl)n1 :: inactive
CCN(CC)C(=O)C(C)Oc1cccc2ccccc12 (stereo not given) :: inactive
CO/N=C(/C1=NOCCO1)c1ccccc1Oc1ncnc(Oc2ccccc2Cl)c1F :: inactive

###

Read-out: sulfotransferase (SULT2A), SULT2A1 (gene 6822)
Test: CLD_SULT2A_24hr: CellzDirect (CLD) Gene Expression Assay for sulfotransferase (SULT2A) at 24 hours (AID 2283694);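 for AC50: potency for increased SULT2A1 mRNA level as induction over DMSO baseline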
Method: CLD_24hr is a cell-based, multiplexed-readout assay that uses hepatocyte, a human liver primary cell, with measurements taken at 24 hours after chemical dosing in a 96-well plate.CLD_SULT2A_24hr is one of 16 assay component(s) measured or calculated from the CLD_24hr assay. […] Furthermore, this assay endpoint can be referred to as a primary readout. […]
Inconclusive results are not listed. The source made the active and inactive calls. The calls were made as follows: active = hit-call score of the fitted dose curve at least 0.9, where 1 is the maximum; inconclusive = response in the unintended direction; inactive = score below 0.9.
PROPERTY_MEASURED: AC50

CN=C=S :: inactive
CCOc1nc(F)cc2nc(S(=O)(=O)Nc3c(Cl)cccc3Cl)nn12 :: 5.51 µM (active)
CC1(C)C(C=C(Cl)Cl)C1C(=O)OC(C#N)c1cccc(Oc2ccccc2)c1 (stereo unspecified) :: inactive
CCNP(=S)(OC)O/C(C)=C/C(=O)OC(C)C (stereo unspecified) :: inactive
CCCCOCN(C(=O)CCl)c1c(CC)cccc1CC :: inactive
COc1cc(OC)nc(NC(=O)NS(=O)(=O)c2ncccc2OCC(F)(F)F)n1 :: inactive

###

experiment: BSK_3C_Vis: BioMAP Diversity Plus: 3C Assay for Morphology Visualization (AID 2283025); conditions: primary human endothelial cells (HUVEC);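 note: fitted both ways so gain or loss versus DMSO counts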
Calls of active or inactive are those of the source. The calls were made as follows: active = hit-call score of the fitted dose curve at least 0.9, where 1 is the maximum; inactive = score below 0.9.
Classes used: active, inactive

CC(C)Oc1cccc(NC(=O)c2ccccc2C(F)(F)F)c1 :: inactive
Cn1c(-c2ccccc2)cc(-c2ccccc2)[n+]1C :: active
Clc1cccc(C(Cl)(Cl)Cl)n1 :: inactive
CC(C)N1C(=O)N(c2ccccc2)CSC1=NC(C)(C)C :: active
CCCN(CC)CC1COC2(CCC(C(C)(C)C)CC2)O1 (stereo unspecified) :: inactive
CCN(CC)C(=O)C(C)Oc1cccc2ccccc12 (stereo unspecified) :: active
CCN(CC)c1nc(C)cc(OP(=S)(OC)OC)n1 :: inactive
CC(C)Nc1nc(Cl)nc(NC(C)C)n1 :: inactive
CN=C=S :: inactive
COc1cc(OC)nc(NC(=O)NS(=O)(=O)c2ncccc2OCC(F)(F)F)n1 :: inactive
COCc1cnc(C2=NC(C)(C(C)C)C(=O)N2)c(C(=O)O)c1 (stereo unspecified) :: inactive
CCC(C)n1c(=O)[nH]c(C)c(Br)c1=O (stereo unspecified) :: inactive
COC(=O)c1c(C(F)F)nc(C(F)(F)F)c(C2=NCCS2)c1CC(C)C :: inactive
Cc1cc(C)nc(Nc2ccccc2)n1 :: inactive
Nc1c(Cl)c(F)nc(OCC(=O)O)c1Cl :: inactive
COC(=O)N(C(=O)N1CO[C@@]2(C(=O)OC)Cc3cc(Cl)ccc3C2=N1)c1ccc(OC(F)(F)F)cc1 :: inactive
COC(=O)NS(=O)(=O)c1ccc(N)cc1 :: inactive
COc1cc(Cl)c(OC)cc1Cl :: inactive
Cc1ccc(N=CN(C)C=Nc2ccc(C)cc2C)c(C)c1 :: active
CCOc1nc(F)cc2nc(S(=O)(=O)Nc3c(Cl)cccc3Cl)nn12 :: inactive
O=C(O)c1c(Cl)ccc2cc(Cl)cnc12 :: inactive
O=c1n(Cl)c(=O)n(Cl)c(=O)n1Cl :: inactive
CC1(C)C(C(=O)OC(C#N)c2cccc(Oc3ccccc3)c2)C1(C)C (stereo unspecified) :: active
Cc1nc(N(C)C)nc(OC(=O)N(C)C)c1C :: inactive
C=C(C)CN(CC)c1c([N+](=O)[O-])cc(C(F)(F)F)cc1[N+](=O)[O-] :: active
CCCCOCN(C(=O)CCl)c1c(CC)cccc1CC :: active
CCCCC(O)(Cn1cncn1)c1ccc(Cl)cc1Cl (stereo unspecified) :: inactive
CC(C)C1(C)N=C(c2ncccc2C(=O)O)NC1=O (stereo unspecified) :: inactive
CCCCC(C#N)(Cn1cncn1)c1ccc(Cl)cc1 (stereo unspecified) :: active
CC1(C)CON(Cc2ccccc2Cl)C1=O :: inactive
Cc1c(COC(=O)[C@@H]2[C@H](/C=C(\Cl)C(F)(F)F)C2(C)C)cccc1-c1ccccc1 :: active

###

read-out: Plasminogen activator inhibitor-1 (PAI1), SERPINE1 (gene 5054); experiment: BSK_BE3C_PAI1: BioMAP Diversity Plus: BE3C Assay for Plasminogen activator inhibitor-1 (PAI1) Biomarker Activity (AID 2283037); details: primary human bronchial epithelial cells; actives raise or lower the signal
Calls of active or inactive are those of the source. Rule for the calls: active = hit-call score of the fitted dose curve at least 0.9, where 1 is the maximum; inactive = score below 0.9.
PROPERTY_MEASURED: AC50

CCN(CC)C(=O)C(C)Oc1cccc2ccccc12 (stereo not given) :: inactive
CCOP(=S)(OCC)Oc1nc(Cl)n(C(C)C)n1 :: inactive
CCSC(=O)N1CCCCCC1 :: inactive
COC(=O)N(C(=O)N1CO[C@@]2(C(=O)OC)Cc3cc(Cl)ccc3C2=N1)c1ccc(OC(F)(F)F)cc1 :: inactive
Cc1c(COC(=O)[C@@H]2[C@H](/C=C(\Cl)C(F)(F)F)C2(C)C)cccc1-c1ccccc1 :: inactive
CS(=O)(=O)c1ccc(C(=O)C2C(=O)CCCC2=O)c([N+](=O)[O-])c1 :: inactive
CCOc1nc(C(Cl)(Cl)Cl)ns1 :: inactive
C=C(C)CN(CC)c1c([N+](=O)[O-])cc(C(F)(F)F)cc1[N+](=O)[O-] :: inactive
N#Cc1c(Cl)cccc1Cl :: inactive
COc1cc(OC)nc(NC(=O)NS(=O)(=O)c2ncccc2OCC(F)(F)F)n1 :: inactive
O=P(O)(O)CCCl :: inactive
Cc1nc(N(C)C)nc(OC(=O)N(C)C)c1C :: inactive
COC(=O)NS(=O)(=O)c1ccc(N)cc1 :: inactive
O=C(O)c1c(Cl)ccc2cc(Cl)cnc12 :: inactive
CC(C)(C)C(=O)C(Oc1ccc(Cl)cc1)n1cncn1 (stereo not given) :: inactive
CCNC(=O)NC(=O)C(C#N)=NOC :: inactive
Nc1c(Cl)c(F)nc(OCC(=O)O)c1Cl :: inactive
CS(=O)(=O)c1cc(C(F)(F)F)ccc1C(=O)c1cnoc1C1CC1 :: inactive
C=CCOC(=O)C(C)(C)OC(=O)c1cc(-n2c(=O)cc(C(F)(F)F)n(C)c2=O)ccc1Cl :: inactive
COc1ccc(-c2ccccc2)cc1NNC(=O)OC(C)C :: inactive
CCOP(=O)(OCC)Oc1nc(Cl)c(Cl)cc1Cl :: inactive
COCC(C)N(C(=O)CCl)c1c(C)csc1C (stereo not given) :: inactive
CCOc1nc(F)cc2nc(S(=O)(=O)Nc3c(Cl)cccc3Cl)nn12 :: 20.9 µM (active)
CC(C)=CC1C(C(=O)OCc2coc(Cc3ccccc3)c2)C1(C)C (stereo not given) :: inactive
Cc1cnc(C2=NC(C)(C(C)C)C(=O)N2)c(C(=O)O)c1 (stereo not given) :: inactive
OC(c1ccc(Cl)cc1)(c1ccc(Cl)cc1)C(Cl)(Cl)Cl :: 13.9 µM (active)
Cc1cc(C)nc(Nc2ccccc2)n1 :: inactive
Nc1c(Cl)c(Cl)nc(C(=O)O)c1Cl :: inactive
COCc1cnc(C2=NC(C)(C(C)C)C(=O)N2)c(C(=O)O)c1 (stereo not given) :: inactive
CC(C)Oc1cccc(NC(=O)c2ccccc2C(F)(F)F)c1 :: inactive
CCN(CC)c1nc(C)cc(OP(=S)(OC)OC)n1 :: inactive
CC(C)Nc1nc(Cl)nc(NC(C)C)n1 :: inactive
COc1cc(Cl)c(OC)cc1Cl :: inactive
CCCCC(O)(Cn1cncn1)c1ccc(Cl)cc1Cl (stereo not given) :: inactive
CC1(C)C(C(=O)OC(C#N)c2cccc(Oc3ccccc3)c2)C1(C)C (stereo not given) :: inactive

Reference for the values: PubChem BioAssay (EPA / NIEHS)
